# Test system: PXR homodimer (NR concentration 270 nM)
# experiment: PBM binding z-score (relative to random genomic background probes); higher = stronger binding; sequences stand for … in GC…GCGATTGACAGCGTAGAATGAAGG
Record fulfilled whenever PBM binding z-score is at 0.2 or higher; record not fulfilled when lower.

| entrySequence | assignedLabel |
| --- | --- |
| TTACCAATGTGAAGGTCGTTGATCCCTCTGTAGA | fulfilled |
| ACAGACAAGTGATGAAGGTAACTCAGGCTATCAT | not fulfilled |
| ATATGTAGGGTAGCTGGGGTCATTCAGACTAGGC | fulfilled |
| TCTGCTAGGTCAACGATGGTCCGCTAATCTGCTA | not fulfilled |
| GCTCGGAGAACAAGGTCAGAGCTTTGTCCGTAGA | not fulfilled |
| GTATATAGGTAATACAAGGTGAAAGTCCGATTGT | fulfilled |
| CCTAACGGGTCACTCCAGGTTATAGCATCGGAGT | fulfilled |
| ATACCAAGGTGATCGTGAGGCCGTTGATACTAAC | fulfilled |
| CCTCGGAGGAAAACAGGAGGTCAGAGCTGCCAGA | not fulfilled |
| ATAGGTAGGTTACATCCGGGTCATTCAGGCTATG | fulfilled |
| CCAGACAGGTGAAAGGTAACTCAATCTGGTACGC | not fulfilled |
| CAGCTTAGGTCAGGGCCAGTATAGGAGGAACGTT | not fulfilled |

Recorded values, source the supplement of paper PMC6555819.
